IC50: recorded values
- subject of test: EGFR (Human), P00533 [T790M/L858R]
- Sequence (P00533 whole entry T790M/L858R, looked up): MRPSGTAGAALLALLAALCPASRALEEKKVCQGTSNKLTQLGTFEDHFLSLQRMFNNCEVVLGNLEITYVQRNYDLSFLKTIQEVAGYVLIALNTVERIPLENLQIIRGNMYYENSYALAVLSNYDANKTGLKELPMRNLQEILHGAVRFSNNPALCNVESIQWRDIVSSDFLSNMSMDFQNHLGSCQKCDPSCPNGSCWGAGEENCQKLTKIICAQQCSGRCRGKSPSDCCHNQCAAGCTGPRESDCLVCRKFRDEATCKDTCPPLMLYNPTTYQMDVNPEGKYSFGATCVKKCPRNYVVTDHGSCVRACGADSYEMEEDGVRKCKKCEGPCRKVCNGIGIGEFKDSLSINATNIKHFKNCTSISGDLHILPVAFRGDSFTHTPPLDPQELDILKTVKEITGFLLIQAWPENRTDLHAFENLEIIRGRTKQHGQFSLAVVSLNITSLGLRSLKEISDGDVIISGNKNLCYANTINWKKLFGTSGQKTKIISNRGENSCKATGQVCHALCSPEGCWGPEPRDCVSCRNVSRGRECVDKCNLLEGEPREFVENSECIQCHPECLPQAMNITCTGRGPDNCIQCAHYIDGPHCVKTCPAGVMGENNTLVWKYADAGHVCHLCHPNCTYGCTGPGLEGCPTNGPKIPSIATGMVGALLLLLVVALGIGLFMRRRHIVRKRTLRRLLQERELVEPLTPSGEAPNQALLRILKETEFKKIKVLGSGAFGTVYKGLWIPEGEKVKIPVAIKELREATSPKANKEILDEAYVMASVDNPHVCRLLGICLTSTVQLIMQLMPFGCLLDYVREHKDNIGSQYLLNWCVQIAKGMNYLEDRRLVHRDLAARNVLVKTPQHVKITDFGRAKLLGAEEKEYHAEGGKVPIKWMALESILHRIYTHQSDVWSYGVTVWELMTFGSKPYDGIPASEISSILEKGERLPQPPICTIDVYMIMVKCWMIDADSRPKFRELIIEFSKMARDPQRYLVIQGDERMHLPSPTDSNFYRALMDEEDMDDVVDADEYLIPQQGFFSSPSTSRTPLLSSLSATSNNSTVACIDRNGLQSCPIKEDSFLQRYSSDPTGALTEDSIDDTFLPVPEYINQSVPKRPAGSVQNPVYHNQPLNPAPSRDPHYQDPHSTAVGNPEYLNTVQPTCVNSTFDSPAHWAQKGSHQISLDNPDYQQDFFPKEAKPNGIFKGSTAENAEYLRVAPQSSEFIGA
- details: h1975

COc1cc(N2CCN(C)CC2)ccc1Nc1ncc2c(n1)N(c1cccc(N)c1)C(=O)N(C)C2    > 20 µM

Request the reported IC50 associated with CCC(=O)Nc1cccc(N2C(=O)N(C)Cc3cnc(Nc4ccc(N5CCN(C)CC5)cc4OC)nc32)c1
> 20 µM

###

pIC50: recorded values
- subject of test: EGFR (human), P00533 [Inhibition of Proliferation of EGFR(WT, k-Ras mutation) in A549 Cells]
- Sequence (P00533 whole entry, looked up, change not shown): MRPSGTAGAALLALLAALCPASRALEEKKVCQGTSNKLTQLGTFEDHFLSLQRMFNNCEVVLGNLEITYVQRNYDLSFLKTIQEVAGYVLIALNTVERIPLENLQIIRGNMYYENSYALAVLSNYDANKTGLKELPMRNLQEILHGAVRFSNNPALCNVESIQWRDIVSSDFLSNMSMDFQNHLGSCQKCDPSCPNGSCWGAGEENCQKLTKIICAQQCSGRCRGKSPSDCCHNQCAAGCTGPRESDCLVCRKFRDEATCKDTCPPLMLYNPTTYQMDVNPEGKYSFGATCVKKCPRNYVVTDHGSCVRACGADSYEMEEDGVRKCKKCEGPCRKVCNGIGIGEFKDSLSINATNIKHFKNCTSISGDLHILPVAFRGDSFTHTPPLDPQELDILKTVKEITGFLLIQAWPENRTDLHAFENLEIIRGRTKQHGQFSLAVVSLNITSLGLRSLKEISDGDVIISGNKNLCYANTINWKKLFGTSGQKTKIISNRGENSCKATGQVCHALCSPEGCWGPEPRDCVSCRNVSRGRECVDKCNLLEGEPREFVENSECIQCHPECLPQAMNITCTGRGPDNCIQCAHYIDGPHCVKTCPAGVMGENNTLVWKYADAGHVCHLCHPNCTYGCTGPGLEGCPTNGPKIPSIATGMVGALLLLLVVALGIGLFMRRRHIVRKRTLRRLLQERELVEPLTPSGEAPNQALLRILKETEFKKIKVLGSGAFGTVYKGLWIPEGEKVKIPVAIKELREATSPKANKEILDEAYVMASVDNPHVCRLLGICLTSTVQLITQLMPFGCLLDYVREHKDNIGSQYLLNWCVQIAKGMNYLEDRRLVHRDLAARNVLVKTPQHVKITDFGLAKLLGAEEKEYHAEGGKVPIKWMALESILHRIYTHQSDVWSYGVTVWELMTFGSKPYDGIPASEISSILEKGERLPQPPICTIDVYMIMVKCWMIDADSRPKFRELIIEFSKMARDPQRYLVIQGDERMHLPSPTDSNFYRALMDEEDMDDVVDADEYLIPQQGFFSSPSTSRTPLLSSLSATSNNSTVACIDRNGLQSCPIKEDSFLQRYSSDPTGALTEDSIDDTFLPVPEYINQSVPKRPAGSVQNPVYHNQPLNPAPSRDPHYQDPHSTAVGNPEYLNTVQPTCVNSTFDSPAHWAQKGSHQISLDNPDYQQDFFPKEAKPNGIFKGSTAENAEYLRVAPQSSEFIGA
pIC50: −log10 of the molar value.

C=CC(=O)Nc1cccc(N2C(=O)N(C)Cc3cnc(NC)nc32)c1    < 4.70
CCC(=O)Nc1cccc(N2C(=O)N(C)Cc3cnc(Nc4ccc(N5CCN(C)CC5)cc4OC)nc32)c1    < 4.52
C=CC(=O)Nc1cccc(N2C(=O)N(C)Cc3cnc(Nc4ccc(N5CCCN(C)CC5)cc4OC)nc32)c1    < 4.70

Request the reported pIC50 associated with C=CC(=O)Nc1cccc(N2C(=O)N(C)Cc3cnc(Nc4ccc(N(C)C)cc4OC)nc32)c1
< 4.70
